IC50: recorded values
system: Influenza A virus; test: Antiviral activity against Influenza A virus A/Hong Kong/8/1968 (H3N2) infected in MDCK cells assessed as reduction in virus plaque formation after 5 days; format: functional, organism-based; conditions: 120 h
Your answer is read as nM, so omit the unit and give the number.

Please review the following examples before continuing.
- Compound: "CCOC(=O)C1=C[C@@H](OC(CC)CC)[C@H](NC(C)=O)[C@@H](N)C1 [OSELTAMIVIR]"
  IC50 (nM): 1
- Compound: "CC(=O)N[C@H]1[C@H]([C@H](O)[C@H](O)CO)OC(SCCOCCOCCOCCOCCSC2(C(=O)O)C[C@H](NC(=N)N)[C@@H](NC(C)=O)[C@H]([C@H](O)[C@H](O)CO)O2)(C(=O)O)C[C@@H]1NC(=N)N (stereo not given in full)"
  IC50 (nM): 10
- Compound: "CC(=O)N[C@H]1[C@H]([C@H](O)[C@H](O)CO)OC(SCCCCCCS)(C(=O)O)C[C@@H]1NC(=N)N (stereo not given in full)"
  IC50 (nM): 1000
- Compound: "CC(=O)N[C@H]1[C@H]([C@H](O)[C@H](O)CO)OC(C(=O)O)=C[C@@H]1NC(=N)N [ZANAMIVIR]"
  IC50 (nM): 1

Let us examine a further case.
# input compound: CC(=O)N[C@H]1[C@H]([C@H](O)[C@H](O)CO)OC(SCCCCCCSC2(C(=O)O)C[C@H](N)[C@@H](NC(C)=O)[C@H]([C@H](O)[C@H](O)CO)O2)(C(=O)O)C[C@@H]1N (stereo not given in full) ; wanted: its IC50 1000
